Taken from ChEMBL document CHEMBL1156017.

system: SK-BR-3; assay: Inhibition of human SK-BR-3 cells adhesion to gelatinous matrix protein-coated surface after 60 mins by ELISA; format: functional, cell-based
value-type: inhibition

Use these answered entries as a reference point.
Please give the documented inhibition of Cc1c(C)c2c(c(C)c1OC(=O)CCC(=O)O)CC[C@](C)(/C=C/CC(C)CCCC(C)C)O2 (stereo not given in full)
Dose-dependent effect

Please give the documented inhibition of Cc1c(C)c2c(c(C)c1OC(=O)CCC(=O)O)CC[C@@](C)(CCC[C@H](C)CCC[C@H](C)CCCC(C)C)O2 [(+)-ALPHA-TOCOPHERYL SUCCINATE]
Dose-dependent effect

Please give the documented inhibition of Cc1c(C)c2c(c(C)c1OCC(=O)O)CC[C@](C)(CCCC(C)CCCC(C)C)O2 (stereo not given in full)
Dose-dependent effect

Please give the documented inhibition of Cc1c(C)c2c(c(C)c1OCC(=O)O)CC[C@](C)(/C=C/CC(C)CCCC(C)C)O2 (stereo not given in full)
Dose-dependent effect

# ---- query compound ----
Please give the documented inhibition of Cc1c(C)c2c(c(C)c1OC(=O)CCC(=O)O)CC[C@](C)(CCCC(C)CCCC(C)C)O2 (stereo not given in full)
Dose-dependent effect
